Source listed as PubChem BioAssay (EPA / NIEHS).

System: IYD (gene 389434)
assay comment: CCTE_GLTED_hIYD: CCTE's human Iodotyrosine Deiodinase (xIYD) Inhibition Assay, Great Lakes Toxicology and Ecology Division (GLTED) Lab (AID 2284317);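 also: cell-free human IYD enzyme made in baculovirus insect cells; iodide freed from monoiodotyrosine measured by cerium arsenite color change at 420 nm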
Active and inactive are the calls of the source. The calls were made as follows: active = hit-call score of the fitted dose curve at least 0.9, where 1 is the maximum; inconclusive = response in the unintended direction; inactive = score below 0.9.
Outcomes: YES = active, NO = inactive

compound_structure_string=CCCCC/C=C\C/C=C\CCCCCCCC(=O)OC class_assignment=NO
compound_structure_string=CCCCCCCCCCCCCOP(=O)(O)O class_assignment=YES
compound_structure_string=CC(C)(C)c1ccc(-c2ccc(C(C)(C)C)cc2)cc1 class_assignment=NO
compound_structure_string=CCCCCCCC/C=C\CCCCCCCC(=O)OCCO class_assignment=YES
compound_structure_string=Oc1ccc(Cl)cc1Cc1cc(Cl)ccc1O class_assignment=YES
compound_structure_string=O=C(Nc1ccccc1)c1ccccc1O class_assignment=NO
compound_structure_string=CC/C=C\C/C=C\C/C=C\CCCCCCCC(=O)O class_assignment=NO

----------
assay comment: ATG_DR4_LXR_CIS: Attagene CIS-FACTORIAL HepG2 Assay for human Liver X Receptor (LXR), DR4 submotif (AID 2282929)
test settings: HepG2 Attagene DR4 cis-reporter, mRNA transcription; actives raise or lower the signal
Active and inactive are the calls of the source. Rule for the calls: active = hit-call score of the fitted dose curve at least 0.9, where 1 is the maximum; inactive = score below 0.9.
Possible outcomes: true (active), false (inactive)

compound="CCCCC(CC)COCC1CO1 (centres undefined)" class_assignment=false
compound=O=[N+]([O-])c1ccc(CO)cc1 class_assignment=false
compound="CCCC(C)CCC(C)=O (centres undefined)" class_assignment=false
compound=COC(=O)c1c(C)cc(O)c(C)c1O class_assignment=false
compound=O=c1[nH]c(=O)c2[nH]c(=O)[nH]c2[nH]1 class_assignment=false
compound=Cc1cc(=O)n(-c2ccccc2)n1C class_assignment=false
compound=NC(=O)N=NC(N)=O class_assignment=false
compound=C[Si](C)O[Si](C)(C)O[Si](C)(C)O[Si](C)C class_assignment=false
compound=COC(=O)c1ccc2cc(C(=O)OC)ccc2c1 class_assignment=false
compound=O=C(Nc1ccccc1SSc1ccccc1NC(=O)c1ccccc1)c1ccccc1 class_assignment=false
compound=CCOC(=O)N1CCC(=C2c3ccc(Cl)cc3CCc3cccnc32)CC1 class_assignment=true
compound=NC(=O)OCC(COC(N)=O)c1ccccc1 class_assignment=false
compound=CCCOCCOCCOCCO class_assignment=false
compound=[Cl][Bi]([Cl])([c]1ccccc1)([c]1ccccc1)[c]1ccccc1 class_assignment=true
compound=Cc1cc(O)c(Cl)c(C)c1Cl class_assignment=false
compound=C=C1[C@H]2CC[C@@H]3[C@H]2C(C)(C)CCC[C@]13C class_assignment=false
compound=Oc1ccc(Cl)cc1Cc1cc(Cl)ccc1O class_assignment=true
compound=CCCOC(=O)CCCCC(=O)OCCC class_assignment=false
compound=O=C(O)Cc1c(Cl)ccc(Cl)c1Cl class_assignment=false
compound=Cn1c([N+](=O)[O-])cnc1COC(N)=O class_assignment=false
compound=CCCCCCCC(C)=O class_assignment=false
compound=CCC(=O)Oc1ccc(/C(CC)=C(\CC)c2ccc(OC(=O)CC)cc2)cc1 class_assignment=true
compound=O=C1c2cccc(O)c2C(=O)c2c(O)cc(CO)cc21 class_assignment=false
compound=C=CC(C)(C)C class_assignment=false
compound=C[C@]12CCC(=O)C=C1CC[C@@H]1[C@@H]2C(=O)C[C@@]2(C)[C@H]1CC[C@]2(O)C(=O)CO class_assignment=false
compound=Cc1ccc(C(C)(C)C)cc1 class_assignment=false
compound=CCCCCCCC/C=C\CCCCCCCC(=O)O class_assignment=true
compound=NNC(=O)c1cccc(C(=O)NN)c1 class_assignment=false
compound=Nc1nc2ccccc2[nH]1 class_assignment=false
compound="CCC(C)OC(=O)c1ccc(O)cc1 (centres undefined)" class_assignment=false
compound=OCCc1ccncc1 class_assignment=false
compound=O=C(/C=C/C=C/c1ccc2c(c1)OCO2)N1CCCCC1 class_assignment=true
compound=CCCCOCCOC(=O)COc1nc(Cl)c(Cl)cc1Cl class_assignment=false
compound=c1ccc(CCCc2ccncc2)cc1 class_assignment=false
compound="CCCCCCC1(C)CCC(=O)O1 (centres undefined)" class_assignment=false
compound="CCCCC(CC)COC(=O)c1ccccc1O (centres undefined)" class_assignment=false
compound=CC(=O)NS(=O)(=O)c1ccc(N)cc1 class_assignment=false
compound=CC(=O)Nc1nnc(S(N)(=O)=O)s1 class_assignment=false
compound=OCCN(CCO)c1ccccc1 class_assignment=false
compound=Cc1ccc2c(c1)C(=O)c1ccccc1C2=O class_assignment=false
compound=c1ccc(CNCc2ccccc2)cc1 class_assignment=false
compound="C#CC1(O)CC[C@H]2[C@@H]3CCC4=CCCC[C@@H]4[C@H]3CC[C@@]21C (some centres undefined)" class_assignment=true
compound=CC(C)COC(=O)C=Cc1ccccc1 class_assignment=false
compound=OC1CCCCCCCCCCC1 class_assignment=true
compound="C=CC(=O)OCC(Br)CBr (centres undefined)" class_assignment=true
compound=NC(=O)c1ccccc1O class_assignment=false
compound=CC(C)(C)C(=O)C=Cc1ccc(Cl)cc1 class_assignment=true
compound=Cc1ccc(N)c([N+](=O)[O-])c1 class_assignment=false
compound=CCc1nccnc1C class_assignment=false
compound=CC1(C)[C@H]2CC[C@]1(C)C(=O)C2 class_assignment=false
compound=Nc1ccc(-c2ccc(F)cc2)cc1 class_assignment=false
compound=O=Cc1ccc(CO)o1 class_assignment=false
compound=CCCCCC/C=C\CCCCCCCC(=O)O class_assignment=true
compound=O=C(Nc1cccc(C(F)(F)F)c1)c1cc(Br)cc(Br)c1O class_assignment=true
compound=O=C(O)C(c1ccc(Cl)cc1)c1ccc(Cl)cc1 class_assignment=false
compound=CCOC(=O)[C@H](C)O class_assignment=false
compound=O=C(c1ccc(O)cc1)c1ccc(O)cc1O class_assignment=false
compound=Nc1ccc(Cl)cc1Cl class_assignment=false
compound=O=C1CCCC1 class_assignment=false
